# experimental.system: T1, Extracellular domain of human PD1 (huPD1-ECD) (human, UniProt Q15116 25-169, biotinylated in the ligand inhibition assay (sites not given))
# T1 construct: Expressed with a hexahistidine tag or as Fc fusion; also called biotinylated PD-1
# T1 sequence (Q15116 25-169 limits assumed): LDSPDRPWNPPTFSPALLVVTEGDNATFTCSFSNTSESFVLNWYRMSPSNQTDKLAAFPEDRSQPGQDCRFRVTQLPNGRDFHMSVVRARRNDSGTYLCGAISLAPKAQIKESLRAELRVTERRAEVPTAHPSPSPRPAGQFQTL
# test.description: SPR ProteOn, captured mAb, huPD1-ECD analyte
parameter: kon (M⁻¹ s⁻¹)
Note: unit M⁻¹ s⁻¹ is implicit; provide only the numeric part.

Query :: // query kon value for entry PD1B71 (antibody, V domains shown, Tested as IgG2sigma/kappa; also called PD1H108/PH9L3) VH: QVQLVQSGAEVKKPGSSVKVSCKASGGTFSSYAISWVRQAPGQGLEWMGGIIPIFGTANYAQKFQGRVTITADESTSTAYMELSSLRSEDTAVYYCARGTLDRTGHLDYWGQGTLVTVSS VL: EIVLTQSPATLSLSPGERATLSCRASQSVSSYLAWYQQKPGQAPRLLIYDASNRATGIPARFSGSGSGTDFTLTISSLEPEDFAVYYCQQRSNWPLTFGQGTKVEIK
Result :: 548000
